Values were extracted from patent EP0365763A1.

Read-out record for E.coli thymidylate synthase (TS) (Escherichia coli): pKi
Expect pKi as a plain number equal to -log10 of the molar concentration.

Q: # input molecule: "C#CCN(Cc1ccc2nc(C)nc(O)c2c1)c1ccc(C#N)c(Cl)c1" ; wanted: its pKi
A: 7.04

Q: Same again, this time with "C#CCN(Cc1ccc2nc(C)nc(O)c2c1)c1ccc(S(N)(=O)=O)c(C(F)(F)F)c1"
A: 6.72

Q: Same again, this time with "C#CCN(Cc1ccc2nc(C)nc(O)c2c1)c1cccc(C#C)c1"
A: 4.48

Q: Same again, this time with C#CCN(Cc1ccc2nc(C)nc(O)c2c1)c1cccc(C(C)O)c1 (stereo not shown)
A: 4.94

* * *

- measured.on: Human thymidylate synthase (TS) (Homo sapiens)
- Sequence (P04818 whole entry): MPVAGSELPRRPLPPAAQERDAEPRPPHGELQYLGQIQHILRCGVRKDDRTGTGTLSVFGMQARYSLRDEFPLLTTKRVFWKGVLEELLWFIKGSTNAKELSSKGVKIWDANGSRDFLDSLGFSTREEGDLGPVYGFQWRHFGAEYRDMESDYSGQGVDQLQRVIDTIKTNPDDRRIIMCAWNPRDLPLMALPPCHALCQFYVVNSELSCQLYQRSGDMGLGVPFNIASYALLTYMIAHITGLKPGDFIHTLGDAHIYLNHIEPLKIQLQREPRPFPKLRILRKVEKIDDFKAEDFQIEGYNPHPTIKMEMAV
- experiment.summary: Thymidylate synthase inhibition constants against 5,10-methylene-tetrahydrofolate
- Assay type: biochemical
- condition: 25°C, pH 7.6, 25 microM dUMP, THF 5 to 150 microM, 100 micrograms/ml BSA; read-out: K1TS Human
endpoint: Ki (nM)
The figure you give is taken to be in nM; do not add the unit.

Q: # input compound: "C#CCN(Cc1ccc2nc(C)[nH]c(=O)c2c1)c1ccc(S(N)(=O)=O)cc1" ; wanted: its Ki
A: 160

Q: Same again, this time with "C#CCN(Cc1ccc2nc(C)nc(O)c2c1)c1ccc(C#N)cc1"
A: 540

Q: Same again, this time with "C#CCN(Cc1ccc2nc(C)nc(O)c2c1)c1ccc([N+](=O)[O-])cc1"
A: 250

Q: Same again, this time with "C#CCN(Cc1ccc2nc(C)nc(O)c2c1)c1cccc(Br)c1"
A: 3600

Q: Same again, this time with "C#CCN(Cc1ccc2nc(C)nc(O)c2c1)c1cccc(CO)c1"
A: 1200

* * *

- Tested on: CCRF-CEM, a human lymphoblastic leukemia line of T-cell origin (ATCC CCL 119)
- experiment.summary: Cellular growth in culture, MTT-tetrazolium reduction assay
- Format: cell-based
- condition: Homo sapiens, CCRF-CEM, 120 h; 5 days of continuous exposure, MTT; read-out: IC50 FOR CELLS IN CULTURE CCRF-CEM
pIC50: −log10 of the molar value.
Task for the reader: assign each of the following molecules its reported pIC50.

Q: # input molecule: "C#CCN(Cc1ccc2nc(C)[nH]c(=O)c2c1)c1ccc(S(N)(=O)=O)cc1" ; wanted: its pIC50
A: < 4.60

Q: Same again, this time with "C#CCN(Cc1ccc2nc(C)nc(O)c2c1)c1ccc(C#N)cc1"
A: < 5.30

Q: Same again, this time with "C#CCN(Cc1ccc2nc(C)nc(O)c2c1)c1ccc([N+](=O)[O-])cc1"
A: < 5.32

Q: Same again, this time with "C#CCN(Cc1ccc2nc(C)[nH]c(=O)c2c1)c1ccc(S(=O)(=O)C(F)(F)F)cc1"
A: < 5.56

Q: Same again, this time with "C#CCN(Cc1ccc2nc(C)[nH]c(=O)c2c1)c1ccc(S(=O)(=O)c2ccccc2)c(C(F)(F)F)c1"
A: 5.22

Q: Same again, this time with "C#CCN(Cc1ccc2nc(C)nc(O)c2c1)c1cccc(C)c1"
A: < 5.30

Q: Same again, this time with C#CCN(Cc1ccc2nc(C)nc(O)c2c1)c1cccc(C(C)O)c1 (stereo not drawn)
A: < 4.30

Q: Same again, this time with "C#CCN(Cc1ccc2nc(C)nc(O)c2c1)c1cccc(CO)c1"
A: < 4.26

Q: Same again, this time with "C#CCN(Cc1ccc2nc(C)[nH]c(=O)c2c1)c1ccc(C#N)c(C(F)(F)F)c1"
A: < 5.55

* * *

- measured.on: L. major thymidylate synthase (TS) (Leishmania major, UniProt P07382)
- Sequence (P07382 whole entry): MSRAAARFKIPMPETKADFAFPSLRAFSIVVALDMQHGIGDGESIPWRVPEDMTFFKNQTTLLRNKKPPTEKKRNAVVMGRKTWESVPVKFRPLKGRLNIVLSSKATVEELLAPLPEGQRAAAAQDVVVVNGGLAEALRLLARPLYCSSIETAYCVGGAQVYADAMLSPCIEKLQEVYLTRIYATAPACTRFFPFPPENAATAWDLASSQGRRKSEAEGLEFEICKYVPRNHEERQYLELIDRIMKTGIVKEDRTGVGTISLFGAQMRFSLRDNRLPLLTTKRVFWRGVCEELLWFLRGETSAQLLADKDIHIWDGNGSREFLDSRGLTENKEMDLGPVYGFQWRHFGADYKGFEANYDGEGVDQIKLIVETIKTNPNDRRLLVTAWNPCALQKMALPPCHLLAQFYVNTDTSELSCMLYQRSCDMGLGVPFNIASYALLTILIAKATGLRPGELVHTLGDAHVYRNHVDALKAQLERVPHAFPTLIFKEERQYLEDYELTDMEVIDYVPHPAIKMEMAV
- experiment.summary: biochemical
- condition: 25°C, pH 7.6, 25 microM dUMP, THF 5 to 150 microM, 100 micrograms/ml BSA; read-out: K1TS L. major
endpoint: pKi
Expect pKi as a plain number equal to -log10 of the molar concentration.

Q: # get_value(readout= pKi, system= L. major thymidylate synthase (TS) (Leishmania major, UniProt P07382)) for "C#CCN(Cc1ccc2nc(C)nc(O)c2c1)c1ccc(S(=O)(=O)NCC(=O)O)c(C(F)(F)F)c1"
A: 7.89

* * *

- measured.on: Human thymidylate synthase (TS) (Homo sapiens)
- experiment.summary: Thymidylate synthase inhibition constants against 5,10-methylene-tetrahydrofolate
- Type: biochemical
- condition: 25°C, pH 7.6, 25 microM dUMP, THF 5 to 150 microM, 100 micrograms/ml BSA; read-out: K1TS Human
endpoint: Ki
Record the result as number plus unit.

Q: # input molecule: C#CCN(Cc1ccc2nc(C)nc(O)c2c1)c1ccc(C(=O)c2ccccc2)cc1 [Compound 4-COPh] ; wanted: its Ki
A: 0.7 µM

Q: Same again, this time with C#CCN(Cc1ccc2nc(C)nc(O)c2c1)c1cccc(I)c1 [Compound 3-I]
A: 4.7 µM

Q: Same again, this time with C#CCN(Cc1ccc2nc(C)nc(O)c2c1)c1cccc(CC)c1 [Compound 3-C2H5]
A: 23.9 µM

Q: Same again, this time with C#CCN(Cc1ccc2nc(C)[nH]c(=O)c2c1)c1ccc(S(=O)(=O)C(F)(F)F)cc1 [Compound A]
A: 0.075 µM

Q: Same again, this time with C#CCN(Cc1ccc2nc(C)nc(O)c2c1)c1ccc(S(N)(=O)=O)c(C(F)(F)F)c1 [3-CF3,4-SO2NH2]
A: 0.58 µM

Q: Same again, this time with C#CCN(Cc1ccc2nc(C)nc(S)c2c1)c1cccc(C(F)(F)F)c1 [Compound D]
A: 17.5 µM

Q: Same again, this time with C#CCN(Cc1ccc2nc(C)nc(O)c2c1)c1cccc(C(C)O)c1 (stereo not shown) [3-CH(OH)CH3]
A: 9.6 µM

Q: Same again, this time with C#CCN(Cc1ccc2nc(C)nc(O)c2c1)c1cccc(C)c1 [Compound 3-CH3]
A: 10.2 µM

Q: Same again, this time with C#CCN(Cc1ccc2nc(C)nc(O)c2c1)c1ccc(Cl)cc1 [Compound 4-Cl]
A: 5.4 µM

Q: Same again, this time with C#CCN(Cc1ccc2nc(C)nc(O)c2c1)c1ccc([N+](=O)[O-])c(C(F)(F)F)c1 [3-CF3,4-NO2]
A: 0.2 µM

* * *

- measured.on: L. major thymidylate synthase (TS) (Leishmania major, UniProt P07382)
- experiment.summary: biochemical
endpoint: pKi
Expect pKi as a plain number equal to -log10 of the molar concentration.

Q: # input compound: "C#CCN(Cc1ccc2nc(C)[nH]c(=O)c2c1)c1ccc(C#N)c(C(F)(F)F)c1" ; wanted: its pKi
A: 7.52

* * *

- measured.on: C.albicans thymidylate synthase (TS) (Candida albicans)
- Sequence (P12461 whole entry): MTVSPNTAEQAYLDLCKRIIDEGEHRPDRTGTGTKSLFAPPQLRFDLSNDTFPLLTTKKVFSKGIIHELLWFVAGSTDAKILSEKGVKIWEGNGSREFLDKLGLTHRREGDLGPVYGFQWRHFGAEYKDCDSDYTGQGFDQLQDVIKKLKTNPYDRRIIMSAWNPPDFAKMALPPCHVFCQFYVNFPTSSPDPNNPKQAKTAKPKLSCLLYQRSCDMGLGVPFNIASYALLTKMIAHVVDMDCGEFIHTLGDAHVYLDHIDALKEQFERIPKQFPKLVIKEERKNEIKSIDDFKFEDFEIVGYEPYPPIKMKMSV
- experiment.summary: Thymidylate synthase inhibition constants against 5,10-methylene-tetrahydrofolate
- Type: biochemical
endpoint: Ki (µM)
The figure you give is taken to be in µM; do not add the unit.

Q: # input compound: "C#CCN(Cc1ccc2nc(C)nc(O)c2c1)c1ccc(C#N)c(Cl)c1" ; wanted: its Ki
A: 0.28

* * *

- measured.on: C.albicans thymidylate synthase (TS) (Candida albicans)
- experiment.summary: Thymidylate synthase inhibition constants against 5,10-methylene-tetrahydrofolate
- Format: biochemical
- condition: 25°C, pH 7.6, 25 microM dUMP, THF 5 to 150 microM; read-out: K1TS C.albicans
Task for the reader: assign each of the following molecules its reported Ki.
The figure you give is taken to be in µM; do not add the unit.

Q: # input molecule: "C#CCN(Cc1ccc2nc(C)nc(O)c2c1)c1cccc(I)c1" ; wanted: its Ki
A: 15.5

Q: Same again, this time with "C#CCN(Cc1ccc2nc(C)nc(O)c2c1)c1ccc(Cl)cc1"
A: 10.6

Q: Same again, this time with "C#CCN(Cc1ccc2nc(C)nc(O)c2c1)c1cccc(C)c1"
A: 7.7

Q: Same again, this time with "C#CCN(Cc1ccc2nc(C)[nH]c(=O)c2c1)c1ccc(S(N)(=O)=O)cc1"
A: 1

Q: Same again, this time with "C#CCN(Cc1ccc2nc(C)nc(O)c2c1)c1ccc([N+](=O)[O-])cc1"
A: 1.5

Q: Same again, this time with "C#CCN(Cc1ccc2nc(C)nc(O)c2c1)c1ccc(S(N)(=O)=O)c(C(F)(F)F)c1"
A: 1.9

* * *

- Test system: CCRF-CEM, a human lymphoblastic leukemia line of T-cell origin (ATCC CCL 119)
- experiment.summary: Cellular growth in culture, MTT-tetrazolium reduction assay
- Type: cell-based
- condition: Homo sapiens, CCRF-CEM, 120 h; 5 days of continuous exposure, MTT; read-out: IC50 FOR CELLS IN CULTURE CCRF-CEM
endpoint: IC50

Q: # input compound: "C#CCN(Cc1ccc2nc(C)nc(O)c2c1)c1ccc(C(=O)c2ccccc2)cc1" ; wanted: its IC50
A: > 8.5 µM

Q: Same again, this time with "C#CCN(Cc1ccc2nc(C)nc(O)c2c1)c1cccc(CC)c1"
A: > 5 µM

Q: Same again, this time with "C#CCN(Cc1ccc2nc(C)nc(O)c2c1)c1cccc(I)c1"
A: > 5.3 µM

Q: Same again, this time with "C#CCN(Cc1ccc2nc(C)[nH]c(=O)c2c1)c1ccccc1"
A: > 10 µM

Q: Same again, this time with "C#CCN(Cc1ccc2nc(C)nc(O)c2c1)c1ccc(Cl)cc1"
A: > 4 µM

Q: Same again, this time with "C#CCN(Cc1ccc2nc(C)[nH]c(=O)c2c1)c1cccc(C(F)(F)F)c1"
A: > 4.3 µM

Q: Same again, this time with "C#CCN(Cc1ccc2nc(C)nc(O)c2c1)c1ccc(C#N)c(Cl)c1"
A: > 6.8 µM

Q: Same again, this time with "C#CCN(Cc1ccc2nc(C)nc(O)c2c1)c1cccc(C#C)c1"
A: > 2.4 µM

Q: Same again, this time with "C#CCN(Cc1ccc2nc(C)nc(O)c2c1)c1cccc(Br)c1"
A: > 5.5 µM
